Sourced from PubChem BioAssay (NCI)

- System: SK-OV-3 ovarian
- ASSAY_COMMENT: NCI tumour cell line growth inhibition, 48 h
Catalogue of TGI readings, one per entry.

• COc1cc(/C=C/c2cc(/C=C/c3ccc(O)c(OC)c3)n(C(=O)Nc3ccc(F)c(Cl)c3)n2)ccc1O = 1.43 µM
• COC(C(O)CO)C(O)C(O)C(=O)NNc1ccccc1 (stereo not drawn) = > 100 µM
• C=C1C(=O)O[C@H]2[C@H]1CC/C(COC(=O)C(=O)c1cn(Cc3ccccc3)c3ccccc13)=C\CC[C@@]1(C)O[C@@H]21 = 56.7 µM

In one line, give reported TGI of the entry Cc1ccc2c(c1)C(C(=O)N[C@@H]1C(=O)N3[C@@H]1SC(C)(C)[C@@H]3C(=O)O)OCCC2 (stereo partly drawn) .
> 100 µM

Input c1cc(CNC23CC4CC(CC(C4)C2)C3)cc(C[N+](Cc2cccc(CNC34CC5CC(CC(C5)C3)C4)c2)(Cc2cccc(CNC34CC5CC(CC(C5)C3)C4)c2)Cc2cccc(CNC34CC5CC(CC(C5)C3)C4)c2)c1 (stereo not drawn) , output reported TGI.
47.7 µM

# return recorded TGI for entry `Cc1nc(N)sc1C(=O)/C=C\c1ccc2c(c1)OCO2`
> 100 µM

Respond only with TGI recorded for `CC(=O)CSCc1ccccn1`
> 100 µM

In one line, give reported TGI of the entry `COc1cccc(-c2ccc3c4c2O[C@H]2C(=O)CC[C@@]5(O)[C@@H](C3)N(CC3CC3)CC[C@]425)c1` .
34.5 µM

Give reported TGI value for `O=C(O)c1ccc([N+](=O)[O-])c2cc3cnccc3nc12`
> 100 µM

Hello, please tell me recorded TGI for this one: `c1ccc2c(c1)ccn2CCc1c[nH]c2ccccc12`
> 10 µM

Recall and state the measured TGI for `Oc1ccccc1C(Sc1nc2ccccc2s1)Sc1nc2ccccc2s1` .
> 100 µM

// fetch TGI given entry `O=C(O)Cc1cccc2c(=O)c3ccccc3oc12`
41.9 µM

Report TGI, nothing else, for this compound: `O=C(NI1OC(=O)c2ccccc21)c1ccc(Cl)cc1`
> 100 µM

###

Catalogue of TGI readings, one per entry.
- Tested on: COLO 205 colon
- ASSAY_COMMENT: NCI tumour cell line growth inhibition, 48 h

• Cc1cccc(NC(=O)/C(=N\NC(C)(C)C)C2NC(=S)NC2=O)c1C (stereo unspecified) = > 100 µM
• O=P(Nc1ccc(Cl)cc1)(Oc1ccccc1)N(CCCl)CCCl (stereo unspecified) = > 100 µM
• CCCCC(O)(c1ccc(Cl)cc1)C(CN1CCOCC1)c1ccc(Cl)cc1 (stereo unspecified) = 25.5 µM

Write TGI of `Cc1ccc(C2=C(c3ccccc3)C(Br)(c3ccc(C)cc3)C(c3ccccc3)=C2c2ccc(C)cc2)cc1` ; system used: COLO 205 colon
> 100 µM

State the measured TGI (COLO 205 colon) of `NC(N)=NCCC[C@H](N)C(=O)NCC(=O)N[C@@H](CC(=O)O)c1ncc(NC(=O)C(F)(F)F)o1`
> 25 µM

Provide TGI, recorded with COLO 205 colon, of `O=C1C=C(C2=CC(=O)C(=O)c3ccccc32)c2ccccc2C1=O`
38.9 µM

###

- Tested on: SK-MEL-2 melanoma
- ASSAY_COMMENT: NCI tumour cell line growth inhibition, 48 h; in the data active = GI50 below about 0.43 µM; inactive = the rest
Your reply should match one of these outcome classes. True for active, False for inactive

For this compound, state the assay outcome: `COc1ccc(-c2n[nH]nc2-c2cc(OC)c(OC)c(OC)c2)cc1`
True
